assayed.target: HLA-A*03:01
procedure.summary: IEDB peptide-MHC binding, purified MHC/direct/fluorescence; filed as Kd, often an IC50 or EC50 that approximates it; bounds were set here for any values at or beyond the usual limits of such assays
particulars: source organism: Influenza A virus (A/duck/Vietnam/15/2003(H5N1))
readout.type: Kd

Input line: Please provide the recorded Kd for SHEGEGIPL , tested on HLA-A*03:01.
Output line: ≥ 20 µM

----------
assayed.target: HLA-B*07:02
procedure.summary: IEDB peptide-MHC binding, purified MHC/competitive/fluorescence; bounds were set here for any values at or beyond the usual limits of such assays
particulars: source organism: Vaccinia virus Copenhagen
pIC50: −log10 of the molar value.
readout.type: pIC50

Input line: # query: pIC50 of entry IPNSLHSLS
Output line: ≤ 3.87
